Recorded values, source the supplement of paper PMC10126150.

test system: ATP; assay: switch fluorescence ratio, 500 uM ATP over buffer (Cy3 cluster intensity, sum of 5 cycles each) (fold (ratio)); higher = stronger signal-on switching upon ATP binding; sequences stand for … in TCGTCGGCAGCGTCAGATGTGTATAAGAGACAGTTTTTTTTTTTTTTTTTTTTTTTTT…TC; settings: aptamer strand: ATP DNA aptamer (quencher-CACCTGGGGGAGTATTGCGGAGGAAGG + anchor), 100 nM annealed; ATP concentration: 500 uM;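 note: ATP exposure 15 min at 22 °C before imaging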
outcome-measure: switch fluorescence ratio
Give bare numbers.

Known results for sequences:
residue-sequence	switch fluorescence ratio
TAGAAAGGGC	1.01
TACCTTGGGC	1.04
GGGGGGGTCA	0.994
ATGCACGGGC	1.01

In the following, a different sequence is considered.
Exam item: Look up switch fluorescence ratio for this sequence: `TCGGATAGGG`
Marked response: 1.04
